Assign composite z-score to each entry below.
# Test system: Sonic hedgehog protein (Shh)
# ASSAY_INFO: small-molecule binders of Shh protein, primary screen, biochemical, small-molecule microarray, 635/667 nm fluorescence (AID 1151);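 note: Shh protein binding to compounds spotted on small-molecule microarray slides; score combines spot fluorescence intensity with signal-to-noise across triplicate slides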
# CONDITION_SUMMARY: small-molecule microarray binding, 635 nm fluorescence; higher = more signal
Give bare numbers.

Observe how each entry below is paired with its result.
| MOLECULE | TEST_VALUE |
| --- | --- |
| CCCCC=C[C@@H](NC(=O)c1ccc(-c2ccccc2)cc1)c1ccccc1 | -0.181 |
| Cc1ccc(S[C@]2(C(=O)O)CC(=O)N(Cc3cc(C(F)(F)F)cc(C(F)(F)F)c3)[C@@H]2c2ccc(CO)cc2)cc1 | -1.26 |
| CCCCC(O)C1C=CC2C(=O)N(c3ccccc3)C(=O)C2N1Nc1ccc(C(C)C)cc1 (stereo unspecified) | -0.207 |

Hi team, please reply with composite z-score for each item in this list.
1. CCCCO[C@H]1C[C@H]2C(I)=C[C@@H]1C(=O)[C@]21CO1
2. COC(=O)[C@@]1(Cc2ccc(F)cc2)[C@H]2c3cc(C(=O)N(C)C)n(CCc4ccc(O)c(OC)c4)c3C[C@H]2CN1C(=O)c1ccccc1

1. 0.816
2. -0.804

Hi team, please reply with composite z-score for each item in this list.
1. CN(C)CCCCNC(=O)[C@@H]1C[C@@H]2C(=O)N[C@@H](Cc3ccccc3)C(=O)N2[C@@H]1c1cccc(OCCO)c1
2. CC=CC(O)C1C=CC2C(=O)N(c3ccccc3)C(=O)C2N1Nc1ccccc1F (stereo unspecified)
3. O=C1C2C=CC(C(O)c3ccccc3)N(Nc3ccccc3F)C2C(=O)N1c1ccccc1 (stereo unspecified)
4. O=C1N(Cc2ccccc2)Cc2ccccc2[C@@H]2OC(c3ccc(OCCCO)cc3)=N[C@]12CCS(=O)(=O)c1ccccc1
5. COCCOC(=O)N1C(=O)[C@@]2(c3cc(C#CC4=CCCCC4)ccc31)[C@H](C(N)=O)[C@H]1C(=O)O[C@H](c3ccccc3)[C@H](c3ccccc3)N1[C@@H]2c1ccccc1OCCO
6. CO[C@H]1O[C@H](CO)[C@@H](OC(=O)Nc2ccc3c(c2)OCO3)[C@H](OC(=O)c2cc3ccccc3[nH]2)[C@H]1OC(=O)c1cc2ccccc2[nH]1

1.55
-0.371
-0.244
1.42
1.08
0.458

Hi team, please reply with composite z-score for each item in this list.
1. C#CCN([C@@H](Cc1ccc(O)cc1)C(=O)OC)[C@@H](/C=C/C1CC1)[C@H](O)Cc1ccccc1
2. CCOC(=O)C[C@H]1[C@H](OC(=O)Cc2ccc3c(c2)OCO3)[C@@H](NC(=O)Cc2ccc(OC)cc2)c2cc(OCCCO)ccc2N1C(=O)c1ccc2ccccc2n1
3. O=C1O[C@H](c2ccccc2)[C@H](c2ccccc2)N2[C@H]1[C@@H](C(=O)N1CCN(c3ncccn3)CC1)[C@]1(C(=O)Nc3ccc(C#CC4(O)CCCCCC4)cc31)[C@H]2c1ccc(OCCO)cc1
4. COc1cc2c(cc1OC)CN(C(=O)[C@@H]1[C@H]3C(=O)O[C@H](c4ccccc4)[C@H](c4ccccc4)N3[C@H](c3ccc(OCCO)cc3)[C@@]13C(=O)Nc1ccccc13)CC2
5. [N-]=[N+]=Nc1ccccc1[C@H]1OC(c2ccc(OCCCO)cc2)=N[C@@]1(CCS(=O)(=O)c1ccccc1)C(=O)NCCN1CCOCC1

[0.825, 0.492, 2.02, 1.93, 0.273]

src = PubChem BioAssay
